assay_notes: Beagle PK (pharmacokinetics)
Assay type: in vivo, beagle dogs
conditions: whole blood; Beagle dog, PO 3 mg/kg

[
  {
    "compound": "CC(C)(O)COc1ccc(F)c(-c2ccnc(N3CCC(C(=O)N4N=CC[C@H]4c4cc(F)cc(F)c4)CC3)c2)c1 (racemic)",
    "AUC(0-inf) (ng·h/mL)": 18000
  },
  {
    "compound": "O=C(C1CCN(c2cc(-c3cc(OCCCO)ccc3F)ccn2)CC1)N1N=CCC1c1cc(F)cc(F)c1 (racemic)",
    "AUC(0-inf) (ng·h/mL)": 4240
  }
]

* * *

assay_notes: Rat PK&BBB (pharmacokinetics and brain penetration)
Assay type: in vivo, SD rats
conditions: Sprague-Dawley, rat, whole blood, iv, 3 mg/kg, IV 3 mg/kg, 4 hr, read-out: Blood drug concentration
Procedure: In this assay, the pharmacokinetic characteristics and ability to penetrate the blood-brain barrier of the compounds of the present application were assayed after administration of some of the compounds of the present application to SD rats, CD-1 mice or beagle dogs by single oral administration and intravenous injection. 1. […] Pharmacokinetic parameters were calculated using WinNonlin software. […]
value_kind: concentration at 4 h (ng/mL)

[
  {
    "compound": "CC(C)(O)COc1ccc(F)c(-c2ccnc(N3CCC(C(=O)N4N=CC[C@H]4c4cc(F)cc(F)c4)CC3)c2)c1 (racemic)",
    "unit_abbreviation": "ng/mL",
    "recorded_number": 269
  },
  {
    "compound": "O=C(C1CCN(c2cc(-c3cc(OCCCO)ccc3F)ccn2)CC1)N1N=CC[C@H]1c1cc(F)cc(F)c1 (racemic)",
    "unit_abbreviation": "ng/mL",
    "recorded_number": 13.2
  },
  {
    "compound": "O=C(C1CCN(c2cc(-c3cc(OCCCO)ccc3F)ccn2)CC1)N1N=CCC1c1cc(F)cc(F)c1 (racemic)",
    "unit_abbreviation": "ng/mL",
    "recorded_number": 4.13
  }
]

* * *

assay_notes: Mouse PK&BBB (pharmacokinetics and brain penetration)
Format: in vivo, CD-1 mice
conditions: CD-1, whole blood, IV 2 mg/kg

[
  {
    "compound": "O=C(C1CCN(c2cc(-c3cc(OCCCO)ccc3F)ccn2)CC1)N1N=CC[C@H]1c1cc(F)cc(F)c1 (racemic)",
    "AUC(0-inf) (ng·h/mL)": 308
  }
]

* * *

assay_notes: Rat PK&BBB (pharmacokinetics and brain penetration)
Format: in vivo, SD rats
conditions: Sprague-Dawley, rat, whole blood, po, 30 mg/kg, PO 30 mg/kg, 7 hr, read-out: Blood drug concentration
Entries annotated with measured concentration at 7 h
value_kind: concentration at 7 h (ng/mL)

[
  {
    "compound": "O=C(C1CCN(c2cc(-c3cc(OCCCO)ccc3F)ccn2)CC1)N1N=CC[C@H]1c1cc(F)cc(F)c1 (racemic) [Example 40]",
    "value_kind": "concentration at 7 h",
    "recorded_number": 59.8
  },
  {
    "compound": "CC(C)(O)COc1ccc(F)c(-c2ccnc(N3CCC(C(=O)N4N=CC[C@H]4c4cc(F)cc(F)c4)CC3)c2)c1 (racemic) [Example 42]",
    "value_kind": "concentration at 7 h",
    "recorded_number": 1550
  },
  {
    "compound": "O=C(C1CCN(c2cc(-c3cc(OCCCO)ccc3F)ccn2)CC1)N1N=CCC1c1cc(F)cc(F)c1 (racemic) [Example 18]",
    "value_kind": "concentration at 7 h",
    "recorded_number": 23.5
  }
]
